# ASSAY_METHOD_TEXT: protease stability score; higher = more stable; yeast display proteolysis, trypsin and chymotrypsin;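 note: log10 excess protease needed over predicted unfolded state with 0 meaning unfolded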
MEASURED_QUANTITY: protease stability score

INPUT_SEQUENCE	VALUE
DETDKAQKQFEHYERIAHTGDPDEMQRQADENARVEYGDKEVRGRKDVKKWAKDIKDTVDSVEFDIKSFEVQGDKITINVNIVYRSDGRQQSMEVNMVFDVRGDDIQIRSMKFR	0.434
DHDIRELFKRLVDAISTNDPQTMNNNMDKDVEARVGDQDYKGRENMAHELVKTREKIRLEMHLNSLNNEGDYVRVEVEQVLEDNGQPDRSVMDAEWRADNGRVQEYHVDEKP	-0.146
DEEDNTKLKRIMQTGDFETLVHQADENAEFHYGDKTYHGNDQAHKAVENQKKQFDKIEVRSIETKNGHVHVEFRIEVNGRELVLTAFANVHNGRVKNATVQARSEEDRKSLKELDR	0.044
DEEDLTRLHKLWRNNNWKELVNQMDPNARVTVGDEVIQGRENVTHWADRVEHQIDHYEIKDFRRQGNKILVLFRAEVNGQRFEAIVAVLMVNGDVHHLEVRFRDERDEKKFKEHVS	1.48
DEKNMRVVETYLKALTRGDPDQAMRQVDEDVELTVGDKEVKGREEFSKLVKKWQDQARFSLQIHRVKVHENHVNINAEVTWDVNGKPQSFSHIIHARVHNGRIKHMSWEVPTEEWQNIEK	1.29
